Target: Human M4 receptors (Homo sapiens, UniProt P08173)
Construct: expressed in transfected cells
Sequence (P08173 1-479): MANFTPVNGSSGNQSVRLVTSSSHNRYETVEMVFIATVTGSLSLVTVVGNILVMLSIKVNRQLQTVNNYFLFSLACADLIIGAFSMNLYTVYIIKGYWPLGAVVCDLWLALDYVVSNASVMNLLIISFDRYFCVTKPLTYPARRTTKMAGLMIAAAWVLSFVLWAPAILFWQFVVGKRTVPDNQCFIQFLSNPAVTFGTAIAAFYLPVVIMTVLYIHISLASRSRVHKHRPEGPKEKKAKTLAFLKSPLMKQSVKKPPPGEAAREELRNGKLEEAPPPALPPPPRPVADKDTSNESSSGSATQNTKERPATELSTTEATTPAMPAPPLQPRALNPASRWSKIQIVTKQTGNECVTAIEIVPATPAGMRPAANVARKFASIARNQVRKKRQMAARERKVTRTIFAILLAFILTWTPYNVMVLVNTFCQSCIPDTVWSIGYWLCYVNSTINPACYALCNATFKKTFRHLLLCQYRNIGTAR
Test: M4 PAM cAMP assay (GloSensor)
Assay type: cell-based
Settings: HEK293 GloSensor cells expressing hM4; with EC20 acetylcholine and isoproterenol; Emax = maximum asymptote of fitted dose response curve; geometric mean of 2-4 determinations unless footnoted (b: >=5, c: single); read-out: EC50 Mean Asymptote Maximum (%)
Description: The M4 cAMP assay was designed to determine the potency and efficacy of muscarinic positive allosteric modulators (PAMs). […] Promega GloSensor™reagent (Promega # E1291) had previously been aliquotted. […] Cell plate was then incubated for 10 minutes at room temperature, and then read using an EnVision plate reader (Perkin Elmer). Data was exported from the EnVision plate reader. […]
reported.endpoint: Emax (%)

INSERT INTO measurements (molecule, test_result) VALUES
  ('Cc1nc(C)c2c(c1C)CN(C(=O)CC1CN(c3cccnc3)C1)C2', 89.3),
  ('CNc1nc(C)c(C)c2c1CN(C(=O)CC1CN(c3ccnc(C(F)(F)F)c3)C1)C2C (racemic)', 116),
  ('CNc1nc(C)c(C)c2c1CN(C(=O)CC1CN(c3ccnc(C(F)(F)F)c3)C1)C2', 95.9),
  ('CNc1nc(C)c(C)c2c1CN(C(=O)OC1CN(c3cccnc3)C1)C2', 96.8),
  ('Cc1nc(N(C)C)c2c(c1C)CN(C(=O)CC1CN(c3cccnc3)C1)C2', 102),
  ('Cc1nc(N(C)C)c2c(c1C)CN(C(=O)CC1CN(c3cncnc3)C1)C2', 95.1),
  ('Cc1c2c(c(=O)n(C)c1C)CN(C(=O)CC1CN(c3ccnc(C(F)(F)F)c3)C1)C2', 98.9),
  ('CNc1nc(C)c(C)c2c1CN(C(=O)c1cnn(C)c1)C2', 96.8);

###

Molecular target: Human M4 receptors (Homo sapiens)
Construct: expressed in transfected cells
Experiment: M4 PAM cAMP assay (GloSensor)
Assay type: cell-based
Settings: HEK293 GloSensor cells expressing hM4; with EC20 acetylcholine and isoproterenol; Emax = maximum asymptote of fitted dose response curve; geometric mean of 2-4 determinations unless footnoted (b: >=5, c: single); read-out: EC50 Mean Asymptote Maximum (%)
Protocol: The M4 cAMP assay was designed to determine the potency and efficacy of muscarinic positive allosteric modulators (PAMs). […] Promega GloSensor™reagent (Promega # E1291) had previously been aliquotted. […] Cell plate was then incubated for 10 minutes at room temperature, and then read using an EnVision plate reader (Perkin Elmer). Data was exported from the EnVision plate reader. […]
reported.endpoint: Emax (%)

INSERT INTO measurements (compound, reported_endpoint, reading_unit, test_result) VALUES
  ('CNc1nc(C)c(C)c2c1CN(C(=O)CC1CN(c3ccc(F)nc3)C1)C2', 'Emax', '%', 97.7),
  ('CNc1nc(C)c(C)c2c1CN(C(=O)C[C@@H]1C[C@H]1c1ccc(Cl)nc1)C2 (racemic)', 'Emax', '%', 128),
  ('Cc1nc(NCC2CC2)c2c(c1C)CN(C(=O)CC1CN(c3ccncn3)C1)C2', 'Emax', '%', 99.7),
  ('Cc1nc(N)c2c(c1C)CN(C(=O)C[C@@H]1C[C@H]1c1ccc(F)nc1)C2 (relative stereo) [Example 7]', 'Emax', '%', 109);

###

Target: Human M4 receptors (Homo sapiens, UniProt P08173)
Construct: expressed in transfected cells
Sequence (P08173 1-479): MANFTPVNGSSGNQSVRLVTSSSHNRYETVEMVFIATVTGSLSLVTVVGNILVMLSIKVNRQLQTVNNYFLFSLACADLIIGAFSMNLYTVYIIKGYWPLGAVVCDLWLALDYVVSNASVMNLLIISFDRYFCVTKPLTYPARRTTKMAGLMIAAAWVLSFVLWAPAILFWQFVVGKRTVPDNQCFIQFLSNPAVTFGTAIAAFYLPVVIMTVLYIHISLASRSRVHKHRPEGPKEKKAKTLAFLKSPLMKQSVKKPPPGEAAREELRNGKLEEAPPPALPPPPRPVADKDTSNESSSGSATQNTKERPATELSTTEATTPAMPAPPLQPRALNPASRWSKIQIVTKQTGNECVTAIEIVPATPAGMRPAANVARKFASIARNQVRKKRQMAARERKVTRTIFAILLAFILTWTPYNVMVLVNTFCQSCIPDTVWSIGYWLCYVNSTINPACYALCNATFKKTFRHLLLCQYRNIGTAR
Assay: M4 PAM cAMP assay (GloSensor)
Type: cell-based
Details: HEK293 GloSensor cells expressing hM4; with EC20 acetylcholine and isoproterenol; Emax = maximum asymptote of fitted dose response curve; geometric mean of 2-4 determinations unless footnoted (b: >=5, c: single); read-out: EC50 Mean Asymptote Maximum (%)
reported.endpoint: Emax (%)

INSERT INTO measurements (compound, test_result) VALUES
  ('COCc1nc(C)c(C)c2c1CN(C(=O)CC1CN(c3cccnc3)C1)C2', 95.8),
  ('CNc1nc(C)c(C)c2c1CN(C(=O)CC1Cc3ccccc3C1)C2', 98.2),
  ('CNc1nc(C)c(C)c2c1CN(C(=O)CC1Cc3ccc(F)cc3C1)C2 (single isomer, unassigned)', 97),
  ('Cc1nc(OC(F)F)c2c(c1C)CN(C(=O)CC1CN(c3cncnc3)C1)C2', 109),
  ('CNc1nc(C)c(C)c2c1CN(C(=O)OC1Cc3cccnc3C1)C2 (stereo not shown)', 92),
  ('CNc1nc(C)c(C)c2c1CN(C(=O)C[C@@H]1C[C@H]1c1ccc(C)nc1)C2 (racemic) [Example 45]', 105),
  ('Cc1nc(C(F)F)c2c(c1C)CN(C(=O)CC1CN(c3ccnc(C(F)F)c3)C1)C2', 101),
  ('CNc1nc(C)c(C)c2c1CN(C(=O)CCc1ccc(C#N)cc1)C2', 102),
  ('CNc1nc(C)c(C)c2c1CN(C(=O)CC1CN(c3ccnc(C)c3)C1)C2', 97.7),
  ('CNc1nc(C)c(C)c2c1CN(C(=O)CC1CN(c3ccnc(C#N)c3)C1)C2', 95.6),
  ('CNc1nc(C)c(C)c2c1CN(C(=O)CC1CN(c3nncs3)C1)C2', 93.5),
  ('COc1nc(C)c(C)c2c1CN(C(=O)CC1CN(c3cncnc3)C1)C2', 96.1),
  ('Cc1c2c(c(=O)n(C)c1C)CN(C(=O)CC1CN(c3cccnc3)C1)C2', 90.9),
  ('CNc1nc(C)c(C)c2c1CN(C(=O)C[C@@H]1C[C@H]1c1cncnc1)C2 (single isomer, unassigned)', 96.3),
  ('CNc1nc(C)c(C)c2c1CN(C(=O)CCc1cn[nH]c1)C2', 102),
  ('CNc1nc(C)c(C)c2c1CN(C(=O)CC1CN(c3ncns3)C1)C2', 96.1),
  ('CNc1nc(C)c(C)c2c1CN(C(=O)CC1CN(c3ccnc(OC(F)F)c3)C1)C2', 106),
  ('CNc1nc(C)c(C)c2c1CN(C(=O)CC1CN(c3cncnc3)C1)C2', 92.3),
  ('Cc1c2c(c(=O)n(C)c1C)CN(C(=O)C[C@@H]1C[C@H]1c1cccnc1)C2 (single isomer, unassigned)', 90.8),
  ('Cc1nc(N)c2c(c1C)CN(C(=O)C[C@@H]1C[C@H]1c1ccc(F)nc1)C2 (single isomer, unassigned) [Example 8]', 99),
  ('Cc1ncc2c(c1C)CN(C(=O)CC1CN(c3cccnc3)C1)C2', 84.5),
  ('CNc1nc(C)c(C)c2c1CN(C(=O)[C@@H]1CCOC1)C2', 95.5),
  ('CNc1nc(C)c(C)c2c1CN(C(=O)CCc1ccc(OC)cc1)C2', 119),
  ('Cc1nc(CN(C)C)c2c(c1C)CN(C(=O)CC1CN(c3cccnc3)C1)C2', 99.4),
  ('COc1nc(C)c(C)c2c1CN(C(=O)CC1CN(c3cccnc3)C1)C2', 92.1),
  ('CNc1nc(C)c(C)c2c1CN(C(=O)C[C@@H]1C[C@H]1c1ccc(C)nc1)C2 (single isomer, unassigned) [Example 47]', 115),
  ('CNc1nc(C)c(C)c2c1CN(C(=O)CC1CN(c3ccncn3)C1)C2', 95.9),
  ('Cc1nc(C(F)F)c2c(c1C)CN(C(=O)CC1CN(c3cccnc3)C1)C2', 91.7),
  ('CNc1nc(C)c(C)c2c1CN(C(=O)C[C@@H]1C[C@H]1c1cccnc1)C2 (single isomer, unassigned)', 114),
  ('CNc1nc(C)c(C)c2c1CN(C(=O)C1CC1)C2', 96.2),
  ('CNc1nc(C)c(C)c2c1CN(C(=O)CC1CN(c3cccnc3)C1)C2', 95.8),
  ('Cc1[nH]c(=O)c2c(c1C)CN(C(=O)CC1CN(c3cccnc3)C1)C2', 99.7),
  ('CNc1nc(C)c(C)c2c1CN(C(=O)C[C@H]1C[C@@H]1c1cncnc1)C2 (racemic)', 94.8),
  ('Cc1nc(-c2cnn(C)c2)c2c(c1C)CN(C(=O)CC1CN(c3cccnc3)C1)C2', 87.5);
